The measured values listed here are drawn from patent US20050209278A1.

# target.desc: MMP-1 (Homo sapiens, UniProt P03956)
# Construct: made in house; host or cells: MMP-1-transfected HT-1080 cells (spent media)
# Sequence (P03956 100-469): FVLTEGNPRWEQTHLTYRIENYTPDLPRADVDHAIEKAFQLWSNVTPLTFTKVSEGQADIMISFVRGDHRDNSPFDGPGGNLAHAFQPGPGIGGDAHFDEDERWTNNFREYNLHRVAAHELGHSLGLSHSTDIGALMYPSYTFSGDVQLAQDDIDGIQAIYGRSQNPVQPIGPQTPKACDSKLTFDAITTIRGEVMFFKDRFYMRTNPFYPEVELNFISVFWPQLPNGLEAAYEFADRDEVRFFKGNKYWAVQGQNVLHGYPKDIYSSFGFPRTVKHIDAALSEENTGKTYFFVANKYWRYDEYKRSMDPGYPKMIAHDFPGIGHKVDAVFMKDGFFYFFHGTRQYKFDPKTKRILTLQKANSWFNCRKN
# assay.notes: In vitro MMP inhibition, Ki determination (fluorogenic substrate II)
# Format: biochemical
# protocol.conditions: value outside parentheses; read-out: MMP-1 Ki
pKi: −log10 of the molar value.
quantity.measured: pKi

| compound | val |
| --- | --- |
| Cc1cc(N2CCN(S(=O)(=O)C3(C(=O)NO)CCOCC3)CC2)ccc1OC(C)C [Example 299] | < 5.00 |
| O=C(NO)C1(S(=O)(=O)N2CCN(c3ncc(-c4ccc(F)cc4F)s3)CC2)CCOCC1 [Example 359] | 5.59 |
| CCCCOc1ccc(N2CCN(S(=O)(=O)C3(C(=O)NO)CCN(c4ccc(Cl)nn4)CC3)CC2)cc1 [Example 281] | < 5.00 |
| O=C(NO)C1(S(=O)(=O)N2CCC(c3ccc(OCC(F)(F)C(F)F)cc3)CC2)CCN(C2CC2)CC1 [Example 350] | < 5.00 |
| Cc1ccc(-c2csc(N3CCN(S(=O)(=O)C4(C(=O)NO)CCOCC4)CC3)n2)cc1 [Example 412] | < 5.00 |
| CCCCOc1ccc(N2CCN(S(=O)(=O)C3(C(=O)NO)CCN(Cc4ccco4)CC3)CC2)cc1 [Example 252] | < 5.00 |
| CCCCOc1ccc(N2CCN(S(=O)(=O)C3(C(=O)NO)CCN(C(=O)C(C)(C)C)CC3)CC2)cc1 [Example 267] | < 5.00 |
| O=C(NO)C1(S(=O)(=O)N2CCN(c3ncc(-c4ccc(C(F)(F)F)cc4)s3)CC2)CCOCC1 [Example 346] | 5.24 |
| O=C(NO)C1(S(=O)(=O)N2CCC(c3ccc(OC(F)(F)C(F)(F)F)cc3)CC2)CCOCC1 [Example 349] | < 5.00 |
| O=C(NO)C1(S(=O)(=O)N2CCN(c3ncc(-c4ccc(F)cc4)s3)CC2)CCOCC1 [Example 345] | 5.26 |
| CCCCCCCOC1CCN(S(=O)(=O)C2(C(=O)NO)CCOCC2)CC1 [Example 406] | 5.05 |
| O=C(NO)C1(S(=O)(=O)N2CCN(c3cnn(CCCC(F)(F)F)c(=O)c3)CC2)CCOCC1 [Example 321] | < 5.00 |
| O=C(NO)C1(S(=O)(=O)N2CCC(c3ccc(N4CCCC4)cn3)CC2)CCOCC1 [Example 408] | < 5.00 |
| CCCCOc1ccc(N2CCN(S(=O)(=O)C3(C(=O)NO)CCN(C(=O)CO)CC3)CC2)cc1 [Example 271] | 5.13 |
| O=C(NO)C1(S(=O)(=O)N2CCN(c3ccc(CCCC(F)(F)F)c(F)c3)CC2)CCOCC1 [Example 389] | < 5.00 |
| COc1ccccc1-c1ccc(N2CCN(S(=O)(=O)C3(C(=O)NO)CCOCC3)CC2)nc1 [Example 318] | < 5.00 |
